Assay: In vitro blood-brain barrier permeability test
Assay type: in vitro ADME
Settings: not told; 30 μM; read-out: Recovery Rate
readoutKind: recovery at 30 minutes, 30 μM

Exercise: Would you mind telling me what recovery at 30 minutes, 30 μM value was observed for CSCC[C@H](NC(=O)[C@H](CCC(N)=O)NC(C)=O)C(=O)N[C@H]1CCC(=O)NCCCCNC(=O)CC[C@@H](C(=O)N[C@@H](CC(C)C)C(=O)N[C@@H](CCC(N)=O)C(=O)N[C@@H](CC(C)C)C(=O)N[C@@H](CCCNC(=N)N)C(=O)N[C@@H](CCC(N)=O)C(=O)N[C@@H](CCCNC(=N)N)C(N)=O)NC(=O)[C@H](CC(C)C)NC(=O)[C@H](CC(=O)O)NC(=O)[C@H](CO)NC1=O ?
Key: 0.01%

* * *

Assay: In vitro blood-brain barrier permeability test
Assay type: in vitro ADME
Conditions: 30 minutes; 2 or less: very low permeability; read-out: blood-brain barrier permeability coefficient (Papp)
readoutKind: Papp at 30 min

Exercise: For CSCC[C@H](NC(=O)[C@H](CCC(N)=O)NC(C)=O)C(=O)N[C@H]1CCC(=O)NCCCCNC(=O)CC[C@@H](C(=O)N[C@@H](CC(C)C)C(=O)N[C@@H](CCC(N)=O)C(=O)N[C@@H](CC(C)C)C(=O)N[C@@H](CCCNC(=N)N)C(=O)N[C@@H](CCC(N)=O)C(=O)N[C@@H](CCCNC(=N)N)C(N)=O)NC(=O)[C@H](CC(C)C)NC(=O)[C@H](CC(=O)O)NC(=O)[C@H](CO)NC1=O [stapled ERAP No. 12] , what is its reported Papp at 30 min?
Key: ≤ 2 ×10⁻⁶ cm/s
